All figures here come from paper PMC7187627.

Assay: Plasma pharmacokinetics, multiple-ascending-dose phase 1 study
Format: in vivo, human
Conditions: human, plasma, po, 400 mg, 400 mg Q12h oral, day 1; median (minimum, maximum); read-out: Plasma Tmax
OBSERVABLE: Tmax
A complete answer gives the number followed by the unit.

Qu. Param item = O=c1cc(NCCCN[C@@H]2CCOc3c(Br)cc(Br)cc32)[nH]c2ccsc12 [CRS3123] ; retrieve measured Tmax.
Ans. 3 h

---

Test: Plasma pharmacokinetics, multiple-ascending-dose phase 1 study
Assay type: in vivo, human
Conditions: human, plasma, oral; 200 mg Q12h, day 10; median; read-out: Plasma AUC(0-tau)
OBSERVABLE: AUC (ng·h/mL)
Expressed in ng·h/mL, but write only the number.

Qu. Param item = O=c1cc(NCCCN[C@@H]2CCOc3c(Br)cc(Br)cc32)[nH]c2ccsc12 ; retrieve measured AUC.
Ans. 2470
